# Tested on: Estrogen receptor beta (Homo sapiens)
# Protocol details: Affinity for estrogen receptor beta (ER-beta) relative to estradiol
Label satisfied when relative binding affinity (RBA) is strictly below 0.8; at or above that, label not satisfied.

// known answers, use as guide
Compound	Category
Oc1ccc2c(c1)CN1CN2Cc2cc(O)ccc21	satisfied
Oc1ccc2c(c1)CC1CC2Cc2cc(O)ccc21	satisfied
C[C@@H]1c2ccc(O)cc2C2CC1c1cc(O)ccc1[C@H]2C	satisfied
Oc1ccc(C2C3CCCC2CCC3)cc1 (stereo not drawn)	not satisfied
Oc1ccc(C2=CCC3CCCC2C3)cc1 (stereo not drawn)	not satisfied
CC1(c2ccc(O)cc2)C2CCCC1CCC2 (stereo not drawn)	not satisfied
O=C1c2ccc(O)cc2C2CC1c1cc(O)ccc1C2=O	satisfied

--- query ---
Consider the compound O=C1c2cc(O)ccc2C2CC1c1ccc(O)cc1C2=O . Is its relative binding affinity (RBA) strictly less than 0.8? satisfied

====

# Tested on: Estrogen receptor (Homo sapiens) (UniProt Q92731+P03372)
# Sequence (Q92731 whole entry, looked up, one chain of several): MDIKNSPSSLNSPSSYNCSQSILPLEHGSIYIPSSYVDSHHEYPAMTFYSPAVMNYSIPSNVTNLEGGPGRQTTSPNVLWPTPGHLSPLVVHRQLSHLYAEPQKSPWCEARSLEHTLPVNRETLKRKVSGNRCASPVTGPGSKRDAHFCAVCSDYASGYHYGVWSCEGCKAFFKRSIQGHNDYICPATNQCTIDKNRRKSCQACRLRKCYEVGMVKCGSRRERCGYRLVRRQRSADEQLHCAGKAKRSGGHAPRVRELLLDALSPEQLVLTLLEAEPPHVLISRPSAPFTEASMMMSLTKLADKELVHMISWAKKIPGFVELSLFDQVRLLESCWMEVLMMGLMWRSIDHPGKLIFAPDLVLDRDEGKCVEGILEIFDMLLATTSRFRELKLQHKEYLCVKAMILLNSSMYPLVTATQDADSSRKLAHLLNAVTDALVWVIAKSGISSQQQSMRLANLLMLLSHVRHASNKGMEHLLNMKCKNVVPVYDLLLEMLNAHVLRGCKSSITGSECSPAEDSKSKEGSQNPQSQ
# Protocol details: Relative affinity for alpha and beta estrogen receptors
# Type: protein assay
Measured Ratio of individual entries
Quick one: just the number, no unit, thanks!

Compound	Ratio
Oc1ccc(C2C3CCCC2CCC3)cc1 (configuration not stated)	10
O=C1c2cc(O)ccc2C2CC1c1ccc(O)cc1C2=O	3.5
Oc1ccc2c(c1)CC1CC2Cc2cc(O)ccc21	3.5

Annotate the compound Oc1ccc2c(c1)C1Cc3ccc(O)cc3C(C2)C1 with its measured Ratio. 2

Give reported Ratio value for CC(=C1C2CCCC1CCC2)c1ccc(O)cc1 2.7

Please report Ratio for the following compound: O=C1c2ccc(O)cc2C2CC1c1cc(O)ccc1C2=O 4.4

Read the entry C[C@@H]1c2cc(O)ccc2C2CC1c1ccc(O)cc1[C@H]2C and write its reported Ratio. 2.7

====

# Tested on: Estrogen receptor (Homo sapiens) (UniProt P03372)
# Protocol details: Affinity for estrogen receptor alpha (ER-alpha) relative to estradiol
Label y when relative binding affinity (RBA) is at or above 0.006; otherwise label n.

Example entries begin here.
Oc1ccc2c(c1)CN1CN2Cc2cc(O)ccc21 n
CC(=C1C2CCCC1CCC2)c1ccc(O)cc1 y
C[C@@H]1c2ccc(O)cc2C2CC1c1cc(O)ccc1[C@H]2C y
Oc1ccc(C(=C2C3CCCC2CCC3)c2ccc(O)cc2)cc1 y

Below: the item to evaluate.
Check this molecule for relative binding affinity (RBA) at or above 0.006: C[C@@H]1c2cc(O)ccc2C2CC1c1ccc(O)cc1[C@H]2C n

====

# Tested on: Estrogen receptor beta (Homo sapiens) (UniProt Q92731)
# Sequence (Q92731 whole entry): as the sequence (Q92731 whole entry, looked up, one chain of several) above
# Protocol details: Affinity for estrogen receptor beta (ER-beta) relative to estradiol
Value type: relative binding affinity (RBA)
Field format: numeric only.

Here are 5 compounds together with their reported answers.
Compound	relative binding affinity (RBA)
Oc1ccc(C2CCC3CC2CCC3c2ccc(O)cc2)cc1 (stereo unspecified)	2.9
Oc1ccc(C2(c3ccc(O)cc3)C3CCCC2CCC3)cc1	0.25
CC(=C1C2CCCC1CCC2)c1ccc(O)cc1	4.58
C[C@@H]1c2cc(O)ccc2C2CC1c1ccc(O)cc1[C@H]2C	0.011
Oc1ccc(C(=C2C3CCCC2CCC3)c2ccc(O)cc2)cc1	301

Switching to the query record.
# assay system Estrogen receptor beta (Homo sapiens) (UniProt Q92731): give relative binding affinity (RBA) of Oc1ccc2c(c1)C1Cc3ccc(O)cc3C(C2)C1 0.072

====

# Tested on: Estrogen receptor (Homo sapiens) (UniProt Q92731+P03372)
# Protocol details: Relative affinity for alpha and beta estrogen receptors
# Format: protein assay
Value type: Ratio

Below are worked cases with known answers.
Compound	Tested on	Ratio
CC1(c2ccc(O)cc2)C2CCCC1CCC2 (stereo unspecified)	Estrogen receptor (Homo sapiens) (UniProt Q92731+P03372)	28
C[C@@H]1c2ccc(O)cc2C2CC1c1cc(O)ccc1[C@H]2C	Estrogen receptor (Homo sapiens) (UniProt Q92731+P03372)	3.6
Oc1ccc(C2(c3ccc(O)cc3)C3CCCC2CCC3)cc1	Estrogen receptor (Homo sapiens) (UniProt Q92731+P03372)	0.8
Oc1ccc(C(=C2C3CCCC2CCC3)c2ccc(O)cc2)cc1	Estrogen receptor (Homo sapiens) (UniProt Q92731+P03372)	0.59
Oc1ccc(C2=CCC3CCCC2C3)cc1 (stereo unspecified)	Estrogen receptor (Homo sapiens) (UniProt Q92731+P03372)	4.6

Now for a further compound.
Find Ratio for Oc1ccc(C2CCC3CC2CCC3c2ccc(O)cc2)cc1 (stereo unspecified) on Estrogen receptor (Homo sapiens) (UniProt Q92731+P03372) and write it down. 6.6

====

Quick reference for relative binding affinity (RBA) among some compounds
# Tested on: UniProtKB P03372
# Sequence (whole entry): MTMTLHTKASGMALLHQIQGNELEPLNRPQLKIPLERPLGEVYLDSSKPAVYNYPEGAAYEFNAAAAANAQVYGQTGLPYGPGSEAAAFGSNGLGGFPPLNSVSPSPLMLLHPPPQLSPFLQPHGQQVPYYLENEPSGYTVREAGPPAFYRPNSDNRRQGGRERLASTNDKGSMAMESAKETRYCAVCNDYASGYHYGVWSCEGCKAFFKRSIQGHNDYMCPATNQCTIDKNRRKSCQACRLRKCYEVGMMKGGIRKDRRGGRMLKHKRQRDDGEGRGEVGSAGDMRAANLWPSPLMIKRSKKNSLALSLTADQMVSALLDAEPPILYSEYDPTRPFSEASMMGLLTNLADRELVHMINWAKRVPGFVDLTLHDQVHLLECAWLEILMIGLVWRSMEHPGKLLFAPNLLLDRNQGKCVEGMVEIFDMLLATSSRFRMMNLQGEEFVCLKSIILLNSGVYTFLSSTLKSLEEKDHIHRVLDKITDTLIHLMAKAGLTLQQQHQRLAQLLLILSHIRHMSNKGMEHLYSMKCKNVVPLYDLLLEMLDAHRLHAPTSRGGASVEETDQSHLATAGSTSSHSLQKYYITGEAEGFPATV
# Protocol details: Affinity for estrogen receptor alpha (ER-alpha) relative to estradiol
Answer field: number only, no words.

Input CC1(c2ccc(O)cc2)C2CCCC1CCC2 (stereo not drawn) , output reported relative binding affinity (RBA). 0.32

Tell me relative binding affinity (RBA) reported for Oc1ccc(C2C3CCCC2CCC3)cc1 (stereo not drawn) 0.13

Output relative binding affinity (RBA) of O=C1c2ccc(O)cc2C2CC1c1cc(O)ccc1C2=O 0.005

In one line, give reported relative binding affinity (RBA) of the entry Oc1ccc2c(c1)CC1CC2Cc2cc(O)ccc21 . 0.22

====

The entries below are paired with their reported relative binding affinity (RBA).
# Tested on: Estrogen receptor (Homo sapiens)
# Protocol details: Affinity for estrogen receptor alpha (ER-alpha) relative to estradiol
Just the number, please.

Known relative binding affinity (RBA) results, listed for orientation:
Molecule	relative binding affinity (RBA)
Oc1ccc(C2(c3ccc(O)cc3)C3CCCC2CCC3)cc1	0.31
Oc1ccc(C2=CCC3CCCC2C3)cc1 (centres undefined)	0.39
Oc1ccc(C2CCC3CC2CCC3c2ccc(O)cc2)cc1 (centres undefined)	0.44

Annotate the molecule Oc1ccc2c(c1)C1Cc3ccc(O)cc3C(C2)C1 with its measured relative binding affinity (RBA). 0.033

Where these numbers come from: ChEMBL document CHEMBL1144864
